Molecular target: TCPTP1-281
Test: pNPP hydrolysis by TC-PTP lacking the α7-equivalent region
Assay type: biochemical, H. sapiens
Settings: TCPTP1-281; competitive model of inhibition; read-out: Fit par. Ki, competitive model
experimental.endpoint: Ki (µM)
Number only, in µM; omit the unit.

[Q] Requested field: Ki. Item: C=C(C)[C@@H]1CC[C@@H](C)[C@@H]2CCC(C)=C[C@@H]21 [amorphadiene]
[A] 87.2

[Q] Requested field: Ki. Item: CC(C)=CCC=C(C)C1CC=C(C)CC1 (stereo not drawn) [α-bisabolene]
[A] 13.7

###

Target: PTP1B1-281 (PTP1B282 in FIG. 12) (Homo sapiens)
Construct: made in house; host or cells: E. coli BL21 (DE3)
Sequence (P18031 1-281): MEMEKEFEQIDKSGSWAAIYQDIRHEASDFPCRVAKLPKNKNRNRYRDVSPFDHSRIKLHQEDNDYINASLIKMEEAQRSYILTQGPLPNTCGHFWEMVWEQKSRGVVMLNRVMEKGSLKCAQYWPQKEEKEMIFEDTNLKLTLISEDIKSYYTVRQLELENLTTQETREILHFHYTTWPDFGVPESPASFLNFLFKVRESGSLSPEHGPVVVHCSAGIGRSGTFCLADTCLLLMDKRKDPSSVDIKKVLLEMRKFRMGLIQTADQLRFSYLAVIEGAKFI
Assay: pNPP hydrolysis by PTP1B lacking the α7 helix
Assay type: biochemical, H. sapiens
Details: PTP1B1-281; mixed model, uncompetitive constant; read-out: Fit par. Ki,u, mixed model
experimental.endpoint: Ki
// return the numeric value with its unit appended

[Q] Requested field: Ki. Item: CC(C)=CCC=C(C)C1CC=C(C)CC1 (centres unmarked)
[A] 47.7 µM

Pending compound:
[Q] Requested field: Ki. Item: `C=C(C)[C@@H]1CC[C@@H](C)[C@@H]2CCC(C)=C[C@@H]21`
[A] 271 µM

###

# Lookup of reported IC50 keyed by entry
Biological target: PTP1B (PTP1B1-321) (Homo sapiens, UniProt P18031)
Construct: His-tag; made in house; host or cells: E. coli BL21 (DE3), pET21b
Test: PTP1B-catalyzed hydrolysis of pNPP in the presence of terpenoids (enzyme kinetics, IC50 from best-fit models)
Format: biochemical, H. sapiens
Settings: Example 2; 15 mM pNPP, 10% DMSO, HEPES pH 7.3; ± 95% confidence interval
Procedure: Enzyme kinetics. To examine terpenoid-mediated inhibition, PTP1B-catalyzed hydrolysis of p-nitrophenyl phosphate (pNPP) was measured in the presence of various concentrations of terpenoids. […] The formation of p-nitrophenol was monitored by measuring absorbance at 405 nm every 10 seconds for 5 minutes on a Spectramax M2 plate reader. […]
Number only, in µM; omit the unit.

[Q] Requested field: IC50. Item: `C=C(C)[C@@H]1CC[C@@H](C)[C@@H]2CCC(C)=C[C@@H]21`
[A] 53

[Q] Requested field: IC50. Item: CC1=C[C@@H]2C(=C(C)CC[C@H]2C(C)C)CC1 [(+)-1 (10),4-cadinadiene]
[A] 165

[Q] Requested field: IC50. Item: CC(C)=CCC=C(C)C1CC=C(C)CC1 (stereo not drawn)
[A] 13

###

Molecular target: SHP2 (SHP2223-565) (Homo sapiens, UniProt Q06124)
Construct: made in house; host or cells: E. coli BL21 (DE3)
Sequence (Q06124 223-565 limits assumed): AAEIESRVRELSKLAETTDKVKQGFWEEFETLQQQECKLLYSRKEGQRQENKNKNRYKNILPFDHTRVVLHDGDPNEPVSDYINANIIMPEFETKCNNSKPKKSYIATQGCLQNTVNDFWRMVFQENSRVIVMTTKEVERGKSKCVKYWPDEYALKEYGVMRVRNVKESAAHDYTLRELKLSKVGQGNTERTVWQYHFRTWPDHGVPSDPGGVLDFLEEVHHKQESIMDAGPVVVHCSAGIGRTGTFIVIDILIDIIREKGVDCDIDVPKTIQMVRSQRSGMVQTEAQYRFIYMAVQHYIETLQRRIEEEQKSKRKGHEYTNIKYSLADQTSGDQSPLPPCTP
Assay: SHP2-catalyzed hydrolysis of 4-MUP in the presence of terpenoids
Assay type: biochemical, H. sapiens
Details: SHP2223-565; uncompetitive model of inhibition; read-out: Fit par. Ki, uncompetitive model
experimental.endpoint: pKi
pKi field: float, defined as -log10 of concentration (mol/L).

[Q] Requested field: pKi. Item: `C=C(C)[C@@H]1CC[C@@H](C)[C@@H]2CCC(C)=C[C@@H]21`
[A] 3.93
